- TARGET: Transient receptor potential cation channel subfamily M member 8 (Rattus norvegicus)
- ASSAY_REMARKS: Agonist activity at rat recombinant TRPM8 overexpressed in HEK293 cells assessed as induction of intracellular calcium influx by Fluo-4-AM dye-based spectrofluorimetric analysis relative to ionomycin
- Format: cell-based
- Design: concentration or dose not given beside the values
List of Efficacy values.

Known results for compounds:
Cc1ccc(/C=C2\OC(=O)c3ccccc32)cc1
< 10%
C=C1OC(=O)c2cc(F)ccc21
< 10%

Here is another compound to look at.
Any idea what Efficacy was measured for O=C1O/C(=C\c2ccc(Cl)cc2)c2ccccc21 ?
< 10%

###

- TARGET: Transient receptor potential cation channel subfamily A member 1 (Rattus norvegicus)
- ASSAY_REMARKS: Agonist activity at rat recombinant TRPA1 overexpressed in HEK293 cells assessed as induction of intracellular calcium influx by Fluo-4-AM dye-based spectrofluorimetric analysis relative to allyl isothiocyanate
- Type: cell-based
QUANTITY_NAME: Efficacy (%)

[I] O=C1O/C(=C\c2ccc(Cl)cc2)c2ccccc21
[II] C=C1OC(=O)c2cc(F)ccc21
[III] CC/C=C1\OC(=O)c2c(C)cc(C)cc21
Sort low-to-high on Efficacy, please. To answer, write out the labels according to the requested order.
II, III, I
(II: 10.2%, III: 43.7%, I: 112%)

Every entry's value here was drawn from ChEMBL document CHEMBL2429801.
